All values here come from the supplement of paper PMC10515830.

system: Danio rerio larvae (5 dpf); experiment: difference in excitability vs DMSO (percentage points); higher = more excitable than DMSO; settings: 10 µM; exposure time 6 h
Counter-ions that a name gives are not always drawn.
Record form. Attribute: difference in excitability. Fill in for each entry.
Give the figure by itself; no unit, no explanation.

Task: Provide one value: measured difference in excitability of "CCCCC[C@H](O)CC[C@@H]1[C@H]2Cc3cccc(OCC(=O)O)c3C[C@H]2C[C@H]1O"
Result: -4.04

Task: Provide one value: measured difference in excitability of CCNC(=O)CCC/C=C\C[C@@H]1[C@@H](/C=C/[C@@H](O)CCc2ccccc2)[C@H](O)C[C@@H]1O [17-phenyl trinor Prostaglandin F2α ethyl amide]
Result: 12.5

Task: Provide one value: measured difference in excitability of "CN1CCN(C2=Nc3cc(Cl)ccc3Nc3ccccc32)CC1"
Result: 9.35

Task: Provide one value: measured difference in excitability of OC[C@H]1NC[C@H](O)[C@@H](O)[C@H]1O [1-Deoxygalactonojirimycin (hydrochloride)]
Result: 1.33

Task: Provide one value: measured difference in excitability of COc1c(N2C[C@@H]3CCCN[C@@H]3C2)c(F)cc2c(=O)c(C(=O)O)cn(C3CC3)c12 [Moxifloxacin (hydrochloride)]
Result: 22.9

Task: Provide one value: measured difference in excitability of "CC(=O)OCC(=O)[C@@]12N=C(C)O[C@@H]1C[C@H]1[C@@H]3CCC4=CC(=O)C=C[C@]4(C)[C@H]3[C@@H](O)C[C@@]12C"
Result: 13.1

Task: Provide one value: measured difference in excitability of "CC(=O)[C@@]1(O)CC[C@H]2[C@@H]3C[C@H](C)C4=CC(=O)C=C[C@]4(C)[C@@]3(F)[C@@H](O)C[C@@]21C"
Result: 5.46

Task: Provide one value: measured difference in excitability of "O=C(O)CCc1nc(-c2ccccc2)c(-c2ccccc2)o1"
Result: 17.9

Task: Provide one value: measured difference in excitability of "C[C@@H](CN1CC(=O)NC(=O)C1)N1CC(=O)NC(=O)C1"
Result: 5.16

Task: Provide one value: measured difference in excitability of COc1c(N2CCNC(C)C2)c(F)cc2c(=O)c(C(=O)O)cn(C3CC3)c12 (stereo not given)
Result: 15

Task: Provide one value: measured difference in excitability of NC(=O)[C@@H]1CC[C@@H]2CN1C(=O)N2OS(=O)(=O)O [Avibactam (sodium salt)]
Result: 1.97

Task: Provide one value: measured difference in excitability of Cn1nnc(-c2ccc(-c3ccc(N4C[C@H](COP(=O)(O)O)OC4=O)cc3F)cn2)n1 [Tedizolid Phosphate]
Result: -1.24

Task: Provide one value: measured difference in excitability of "Cc1ncc([N+](=O)[O-])n1CCO"
Result: 5.42

Task: Provide one value: measured difference in excitability of Cc1nnc(C(=O)NC(C)(C)c2nc(C(=O)NCc3ccc(F)cc3)c(O)c(=O)n2C)o1 [Raltegravir (potassium salt)]
Result: -0.288

Task: Provide one value: measured difference in excitability of CCCN1CCCC[C@H]1C(=O)Nc1c(C)cccc1C [(-)-Ropivacaine (hydrochloride hydrate)]
Result: -4.41
